Recorded CL free, one value per entry.
Tested on: Liver
Assay: Unbound intrinsic clearance in mouse liver microsomes at 0.5 uM in presence of NADPH incubated for 5 to 30 mins by HPLC-MS/MS method
Assay type: ADME, microsome
Observable: CL free (mL/min/kg)

>>> reported("CC1(C(=O)N2CCC(c3ccc(NC(=O)N4Cc5ccccc5C4)cc3)CC2)COC1")
145
>>> reported("O=C(NCc1ccccc1)c1ccc(NC(=O)N2Cc3ccccc3C2)cc1")
350
>>> reported("CC(C)CCNC(=O)c1ccc(NC(=O)N2Cc3ccccc3C2)cc1")
817
>>> reported("N#CN=C(NCCCCCCOc1ccc(Cl)cc1)Nc1ccncc1 [CHS-828]")
1360
>>> reported("CC(C)(O)CC(=O)N1CCC(c2ccc(NC(=O)N3Cc4ccccc4C3)cc2)CC1")
300
>>> reported("NC(=O)c1ccc(NC(=O)N2Cc3ccccc3C2)cc1")
148
>>> reported("O=C(NCC1CCOC1)c1ccc(NC(=O)N2Cc3ccccc3C2)cc1 (stereo unspecified)")
83
>>> reported("O=C(Nc1ccc(C2CCN(S(=O)(=O)C3CC3)CC2)cc1)N1Cc2ccc(F)cc2C1")
500
>>> reported("O=C(/C=C/c1cccnc1)NCCCCC1CCN(C(=O)c2ccccc2)CC1 [DAPORINAD]")
258
>>> reported("O=C(Nc1ccc(S(=O)(=O)c2ccccc2)cc1)N1Cc2ccccc2C1")
367
>>> reported("O=C(NCCCCC1CCN(C(=O)c2ccccc2)CC1)N1Cc2ccccc2C1")
4670
>>> reported("CN(CCC(C)(C)C)C(=O)c1ccc(NC(=O)N2Cc3ccccc3C2)cc1")
2170
>>> reported("CC(C)(O)CC(=O)N1CCC(c2ccc(NC(=O)N3Cc4ccc(F)cc4C3)cc2)CC1")
143
>>> reported("CN1CCN(C(C)(C)C(=O)N2CCC(c3ccc(NC(=O)N4Cc5ccccc5C4)cc3)CC2)CC1")
1470
>>> reported("O=C(Nc1ccc(C(=O)N2CCN(c3ccccn3)CC2)cc1)N1Cc2ccccc2C1")
183
>>> reported("O=C(NCC1CCCOC1)c1ccc(NC(=O)N2Cc3ccccc3C2)cc1 (stereo unspecified)")
75
>>> reported("CN1CCC(C(=O)N2CCC(c3ccc(NC(=O)N4Cc5ccc(F)cc5C4)cc3)CC2)CC1")
267
>>> reported("CCC(C)C(=O)N1CCC(Oc2ccc(NC(=O)N3Cc4ccccc4C3)cc2)CC1 (stereo unspecified)")
2780
>>> reported("CC(C)CCNC(=O)c1ccc(NC(=O)N2Cc3ccccc3C2)cn1")
1250
>>> reported("O=C(NCc1ccc(S(=O)(=O)c2ccccc2)cc1)N1Cc2ccccc2C1")
3670
>>> reported("CC(C)C(=O)N1CCC(c2ccc(NC(=O)N3Cc4ccccc4C3)cc2)CC1")
367
